Reference source: the RNAGym collection of RNA variant scans (doi:10.1073/pnas.2313332121)

Field: polymerase ribozyme fitness (log ratio). Provide a value for each of the variants that follow.
B1: TPR 5TU (parent)
chain: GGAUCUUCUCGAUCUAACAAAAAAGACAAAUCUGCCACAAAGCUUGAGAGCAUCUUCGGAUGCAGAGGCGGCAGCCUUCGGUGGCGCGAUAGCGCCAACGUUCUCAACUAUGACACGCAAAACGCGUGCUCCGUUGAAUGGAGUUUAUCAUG

# Variants of: B1
# assay_overview: polymerase ribozyme fitness, log enrichment relative to wild type (log ratio); higher = more active; in vitro selection for triplet polymerase activity
This sample holds only a part of the variants without activity.

Recall and state the measured polymerase ribozyme fitness (log ratio) for C54U C85U C129U .
-0.134

Annotate the variant A19C C38U C96U A142U with its measured polymerase ribozyme fitness (log ratio).
-0.812

Determine its reported polymerase ribozyme fitness (log ratio): A19U C69G C85U U134G G152U
≤ -4.2

// Input: A49G U139A . Output its polymerase ribozyme fitness (log ratio) only.
-4.08

Check the records and state polymerase ribozyme fitness (log ratio) for C32G C51U U53A G94A U101A A122G
≤ -4.2

Write down polymerase ribozyme fitness (log ratio) measured for item G42A U55A C96A
-4.06

Give a short answer stating reported polymerase ribozyme fitness (log ratio) for A49C G62C U139C .
≤ -4.2

Supply polymerase ribozyme fitness (log ratio) value. Item: C96U A138U
≤ -4.2

Provide measured polymerase ribozyme fitness (log ratio) value, entry: A17G C54G
-1.5

Please indicate polymerase ribozyme fitness (log ratio) recorded for C27U C87A
≤ -4.2

Quote polymerase ribozyme fitness (log ratio) reported for G48C U56C A73G C118A please.
-2.46

Quote polymerase ribozyme fitness (log ratio) reported for A40C A52U G68C C85A G128C please.
≤ -4.2

In one line, give reported polymerase ribozyme fitness (log ratio) of the entry U55G G86A U134A .
-3.62

Tell me polymerase ribozyme fitness (log ratio) reported for A3U C8G
≤ -4.2

Fill in reported polymerase ribozyme fitness (log ratio) for this entry: A24G C99U
-3.56

Assign polymerase ribozyme fitness (log ratio) to the following record: C76U C96U A97G C99U C103G
≤ -4.2

Using the record for G11U G74U G81U G88C A89G C95U G128U U148A , state its measured polymerase ribozyme fitness (log ratio).
≤ -4.2

Return reported polymerase ribozyme fitness (log ratio). Input variant: A39G U53A G58C C72G C95G C103G
≤ -4.2

Please supply the value of reported polymerase ribozyme fitness (log ratio) for the item A73U G84A U144C
-1.83

Specify measured polymerase ribozyme fitness (log ratio) for C5G C18A C87G G143A .
≤ -4.2

For the variant A119C U139C , give its reported polymerase ribozyme fitness (log ratio).
-3.46

For A23G G58U C108G U135G , write its polymerase ribozyme fitness (log ratio).
≤ -4.2

Give the value of polymerase ribozyme fitness (log ratio) reported for the following: U45G C51U C95A C125U
-3.64

Answer with the recorded polymerase ribozyme fitness (log ratio) of C87G A98U only.
-3.64

Output measured polymerase ribozyme fitness (log ratio) for this item: C27U G34C C93A G117A
≤ -4.2

Answer with reported polymerase ribozyme fitness (log ratio) of G59U A60C
-2.96

Give the value of polymerase ribozyme fitness (log ratio) reported for the following: A16U U56G G84A U102A G141U
-3.81

Give the measured polymerase ribozyme fitness (log ratio) for A12U C85A C96A
-2.97

Fill in polymerase ribozyme fitness (log ratio) for record C8U C18G C35A U53A G58C
≤ -4.2

Tell us which polymerase ribozyme fitness (log ratio) value is on record for A20C C79A G94C
≤ -4.2

Fill in polymerase ribozyme fitness (log ratio) for record U33A A49C C76U G80U C149G
≤ -4.2

Hello, please tell me recorded polymerase ribozyme fitness (log ratio) for this one: A49C G50C G67C C72G G84A C108A A142G A147U
≤ -4.2

Indicate its recorded polymerase ribozyme fitness (log ratio); the variant in question is C18U C51U U53A G83A
-3.04

Output polymerase ribozyme fitness (log ratio) of G46U G84C C87G A150G
≤ -4.2

Return reported polymerase ribozyme fitness (log ratio). Input variant: A41C C99G
-0.603

Please give measured polymerase ribozyme fitness (log ratio) of the following entry: A40G A60G U61C G84A
-3.52

Please give measured polymerase ribozyme fitness (log ratio) of the following entry: U33A G50C G81A C93G C96U A98G C103G G152U
≤ -4.2

Please look at this variant and report its polymerase ribozyme fitness (log ratio): U6C U13C C14U G34A G80C A91G
≤ -4.2

Read off the recorded polymerase ribozyme fitness (log ratio) for A3G A12C G62U G70C C79G G81A G84A A147C
≤ -4.2

State its polymerase ribozyme fitness (log ratio): U33A A91C
≤ -4.2

Read off the recorded polymerase ribozyme fitness (log ratio) for C85G U144G
-1.75

Fill in polymerase ribozyme fitness (log ratio) for record C85U C116U
-0.233

Retrieve polymerase ribozyme fitness (log ratio) measured for U55A C108G and print it.
≤ -4.2

Tell me measured polymerase ribozyme fitness (log ratio) for C95U U102C please.
-1.06

For the variant A19U A23C A29G G83C A97U C103G U139C , report polymerase ribozyme fitness (log ratio).
≤ -4.2

Check the records and state polymerase ribozyme fitness (log ratio) for U33G G42A G58C A91G G100A
≤ -4.2
